- Target System: EcR-DF/USP-AE complex
- Assay Explanation: Scatchard analysis of binding of complex to [3H]ponasterone A
- Settings: EcR-DF:USP-AE 1:1, FIG. 23, read-out: dissociation constant (Kd)
Observable: pKd
The quantity pKd is defined as the negative base-10 logarithm of the molar concentration.

Param item = "CC(C)CC[C@@H](O)[C@](C)(O)[C@H]1CC[C@@]2(O)C3=CC(=O)[C@@H]4C[C@@H](O)[C@@H](O)C[C@]4(C)[C@H]3CC[C@]12C" ; retrieve measured pKd.
8.55
